Published IC50 for Melatonin receptor type 1A (Homo sapiens, UniProt P48039), assembled from different documents, is shown next.

Below: 3 compounds and their reported IC50.
CCC(=O)NC[C@@H]1C[C@@H]1c1cccc2nn(C)cc12 (relative stereo) : ≤ 100 nM
CC(=O)NCCC1CCc2ccc3nc(C)sc3c21 (centres unmarked) : 0.15 nM
CC(=O)NCC[C@@H]1CCc2ccc3nc(C)sc3c21 : 0.038 nM

Ask | What measured IC50 is associated with COc1ccc2nn(C)cc2c1C1CC1CNC(C)=O (centres unmarked) on Melatonin receptor type 1A (Homo sapiens, UniProt P48039)?
Reply | ≤ 100 nM

Ask | Look up IC50 with Melatonin receptor type 1A (Homo sapiens, UniProt P48039) for this compound: CC(=O)NCC[C@@H]1CCc2ccc3nn(C)c(Br)c3c21
Reply | ≤ 100 nM

====

Record set: pIC50 | Melatonin receptor type 1A (Homo sapiens) | literature, multiple sources.
pIC50: −log10 of the molar value.

Examples from the recorded data:
CC(=O)NC[C@@H]1C[C@H]1c1cccc2nn(C)cc12 (relative stereo) : ≥ 7.00
CCC(=O)NCC1CC1c1c(Cl)ccc2nn(C)cc12 (centres unmarked) : ≥ 7.00
CC(=O)NCC[C@@H]1CCc2ccc3nn(C)c(F)c3c21 : ≥ 7.00
CC(=O)NCCC1=C(C(C)C)Cc2cnc3c(c21)CCO3 : ≥ 7.00
CC(=O)NCC=C1CCc2ccc3nc(C)sc3c21 : 9.72
CC(=O)NCCC1CCc2ccc3ncoc3c21 (centres unmarked) : 9.06
CCC(=O)NCCC1CCc2cnc3c(c21)CCO3 (centres unmarked) : ≥ 7.00
CC(=O)NCC1CC1c1cccc2nnsc12 (centres unmarked) : ≥ 7.00
CC(=O)NCC1CC1c1ccc(F)c2nn(C)cc12 (centres unmarked) : ≥ 7.00
CC(=O)NCCC1CCc2ccc3nn(C)c(C)c3c21 (centres unmarked) : ≥ 7.00

Ask | Short answer please: pIC50, Melatonin receptor type 1A (Homo sapiens), entry CCn1cc2c(C3CC3CNC(C)=O)cccc2n1 (centres unmarked)
Reply | ≥ 7.00

Ask | Record lookup: for Melatonin receptor type 1A (Homo sapiens), what pIC50 belongs to CC(=O)NCC[C@H]1CCc2ccc3nc(C)sc3c21 ?
Reply | 7.72

Ask | Notebook: pull reported pIC50 for Melatonin receptor type 1A (Homo sapiens), entry CC(=O)NCCC1CCc2ccn3nc(C)cc3c21 (centres unmarked)
Reply | ≥ 7.00

Ask | # query: pIC50 | item CCC(=O)NCCC1CCc2ccc3nc(C)oc3c21 (centres unmarked) | system: Melatonin receptor type 1A (Homo sapiens)
Reply | 9.89

Ask | Please state recorded pIC50 (tested on Melatonin receptor type 1A (Homo sapiens)) of CCC(=O)NCC[C@@H]1CCc2ccc3nc(C)oc3c21
Reply | 10.52

Ask | What pIC50 appears in the records for this molecule with Melatonin receptor type 1A (Homo sapiens)? CCNC(=O)NC[C@@H]1C[C@H]1c1cccn2nc(C)cc12 (relative stereo)
Reply | ≥ 7.00

Ask | // fetch Melatonin receptor type 1A (Homo sapiens) pIC50 for CCC(=O)NCCc1c(-c2ccc(F)cc2)nn2ccc3c(c12)CCO3
Reply | ≥ 7.00

Ask | Record CCc1nn2ccc3c(c2c1C(C)CNC(C)=O)CCO3 (centres unmarked) : what is its pIC50 with Melatonin receptor type 1A (Homo sapiens)?
Reply | ≥ 7.00

Ask | Request body: readout pIC50, system Melatonin receptor type 1A (Homo sapiens), query Cc1cc2c([C@H]3C[C@@H]3CNC(=O)C3CC3)cccn2n1 . Return the value.
Reply | ≥ 7.00

Ask | Record lookup: for Melatonin receptor type 1A (Homo sapiens), what pIC50 belongs to CC(=O)NCCC1CCc2c(Cl)cc3nn(C)cc3c21 (centres unmarked) ?
Reply | ≥ 7.00
